The following compounds are listed with their measured pIC50 values.
target.system: PBK (Homo sapiens (Human))
Sequence (Q96KB5 whole entry): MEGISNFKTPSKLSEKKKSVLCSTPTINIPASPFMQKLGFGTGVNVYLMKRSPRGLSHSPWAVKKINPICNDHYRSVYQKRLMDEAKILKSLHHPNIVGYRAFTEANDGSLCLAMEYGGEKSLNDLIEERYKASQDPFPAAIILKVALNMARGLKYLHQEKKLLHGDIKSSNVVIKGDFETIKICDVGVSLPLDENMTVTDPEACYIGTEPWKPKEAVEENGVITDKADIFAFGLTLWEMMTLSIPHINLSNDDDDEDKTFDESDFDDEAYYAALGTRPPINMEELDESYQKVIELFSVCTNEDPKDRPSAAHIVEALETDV
experiment.notes: Kinase assay (IMAP fluorescence polarization, FITC-labeled histone H3 peptide)
Type: biochemical
details: PBK 0.8 ng/micro-L, 50 micro-M ATP, 100 nM FITC-labeled histone H3 peptide, room temperature 1 hour
Counter-ions that a name gives are not always drawn.
pIC50 here is simply -log10 of the concentration when that concentration is written in mol/L.

// below: answered compounds
compound: CNCC(c1ccc(-c2c(O)cc(C)c3[nH]c(=O)c4sccc4c23)cc1F)C(C)C (stereo not shown)
target.system: PBK (Homo sapiens (Human))
pIC50: 7.77
//
compound: C[C@H](c1ccc(-c2c(O)cc(Cl)c3[nH]c(=O)c4sccc4c23)cc1)N(C)C [Compound 1126, hydrochloride]
target.system: PBK (Homo sapiens (Human))
pIC50: 7.38

Provide pIC50 value for the following compound: NCCc1ccc(-c2c(O)cc(Br)c3[nH]c(=O)c4sccc4c23)cc1 [Compound 1142, hydrochloride]
7.35

Provide pIC50 value for the following compound: C[C@@H](CN)c1ccc(-c2c(O)ccc3[nH]c(=O)c4sccc4c23)cc1 [Compound 1160, hydrochloride]
9.19
